# target.entity: T1, human TNFR2 (Novoprotein, Cat #C830) (human, UniProt P20333 23-257, limits assumed)
# T1 construct: construct not described; also called human TNFR2 protein
# T1 sequence (looked up): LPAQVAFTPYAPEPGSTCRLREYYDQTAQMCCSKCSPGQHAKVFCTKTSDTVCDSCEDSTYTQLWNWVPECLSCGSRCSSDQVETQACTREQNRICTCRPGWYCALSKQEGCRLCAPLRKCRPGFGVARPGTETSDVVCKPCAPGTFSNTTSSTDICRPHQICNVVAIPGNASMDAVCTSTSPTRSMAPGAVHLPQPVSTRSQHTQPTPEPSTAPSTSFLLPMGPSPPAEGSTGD
# test.protocol: competition ELISA, human TNFR2 coated, competitor human TNFα-Biotin
measured.property: IC50 (µg/mL)
The figure you give is taken to be in µg/mL; do not add the unit.

Input: # get_value(readout='IC50', item= 001-Hu2 (antibody, V domains shown, Humanized form of #001; also called VH2 + VL2) VH: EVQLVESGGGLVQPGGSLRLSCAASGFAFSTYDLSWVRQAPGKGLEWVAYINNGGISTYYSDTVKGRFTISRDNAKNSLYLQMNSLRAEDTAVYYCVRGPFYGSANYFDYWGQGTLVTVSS VL: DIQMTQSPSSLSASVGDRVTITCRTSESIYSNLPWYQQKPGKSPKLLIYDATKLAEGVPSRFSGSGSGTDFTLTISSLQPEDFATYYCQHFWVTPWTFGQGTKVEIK )
Output: 0.78

Continue with the binder presented below.
Input: # get_value(readout='IC50', item= 224-Hu3 (antibody, V domains shown, Humanized form of #224; also called VH9 + VL8) VH: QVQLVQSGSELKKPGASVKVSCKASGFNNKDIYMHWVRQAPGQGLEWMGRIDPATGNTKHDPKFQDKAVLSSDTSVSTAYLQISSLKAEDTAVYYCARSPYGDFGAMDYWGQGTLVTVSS VL: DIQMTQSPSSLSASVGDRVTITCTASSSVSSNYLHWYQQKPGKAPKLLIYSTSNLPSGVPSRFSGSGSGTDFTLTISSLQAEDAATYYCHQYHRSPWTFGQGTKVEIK )
Output: 0.441
